Measured values drawn from ChEMBL document CHEMBL3507680 for this set.

- experiment_notes: Human HepG2 cell viability assay in 384 well format
- Format: toxicity, cell-based
- Parameters: dose 125 nL, time 70.5 hour; concentration not given beside the values
- test_parameters: HepG2 cells, read-out: Inhibition
measured_endpoint: cytotoxicity at 70.5 h (%)
Please state the figure in %; there is no need to write the unit.

// below: answered molecules
CCc1nc(CN2CCN(C(=O)c3cc(C)nn3C)CC2)cs1 = -6.68
Cc1nc2c(c(=O)n1C)CCN(Cc1cc3cc[nH]c3cn1)CC2 = 10.6
Cc1cccc(C(=O)N(C)CC(=O)N2CCCC2)c1C = -14.8
Cc1nc(CNC(=O)NC2CCN(c3ncccn3)CC2)cs1 = -6.89

Input line: Return the recorded cytotoxicity at 70.5 h value; entry: CC(CCNC(=O)N(C)CC1CCOCC1)N1CCCCC1 (stereo unspecified)
Output line: -7.97

Input line: Let me know recorded cytotoxicity at 70.5 h for O=C1N(c2cccc(Cl)c2)Cc2nc(=O)n(Cc3cccc(F)c3)n21 , thanks.
Output line: 0.196

Input line: Output cytotoxicity at 70.5 h of Cc1nn(C)cc1C(=O)N1CCC(C(=O)c2nc3ccccc3s2)CC1
Output line: -4.17
